Data credit: ChEMBL document CHEMBL4613215

Species: Rattus norvegicus
protocol.notes: Selectivity ratio of Ki for displacement of [3H]citalopram from in SERT Sprague-Dawley rat midbrain membranes to Ki for displacement of [3H]WIN 35428 from DAT in Sprague-Dawley rat striatum membranes
Overview of reported Ratio Ki across a group of compounds:
observation.type: Ratio Ki

- C[C@@H]1CN(CC[S+]([O-])C(c2ccc(F)cc2)c2ccc(F)cc2)C[C@H](C)N1CC(O)Cc1ccccc1 (some centres undefined): 379
- CCC(=O)N1CCN(CCSC(c2ccc(F)cc2)c2ccc(F)cc2)CC1: 0.5
- [O-][S+](CCN1CCN(C[C@@H](O)Cc2ccccc2)CC1)C(c1ccc(F)cc1)c1ccc(F)cc1 (some centres undefined): 15900
- OC(Cc1ccc(C(F)(F)F)cc1)CN1CCN(CCSC(c2ccc(F)cc2)c2ccc(F)cc2)CC1 (centres undefined): 191
- COc1ccc(CC(O)CN2CCN(CC[S+]([O-])C(c3ccc(F)cc3)c3ccc(F)cc3)CC2)cc1 (centres undefined): 4850
- Fc1ccc(C(SCCCN2CCN(CCCc3ccccc3)CC2)c2ccc(F)cc2)cc1: 122
- CC(=O)CN1CCN(CCSC(c2ccc(F)cc2)c2ccc(F)cc2)CC1: 96
- OC(Cc1ccc(F)cc1)CN1CCN(CCSC(c2ccc(F)cc2)c2ccc(F)cc2)CC1 (centres undefined): 796
- CC(O)CN1[C@H](C)CN(CC[S+]([O-])C(c2ccc(F)cc2)c2ccc(F)cc2)C[C@@H]1C (some centres undefined): 78
- C[C@@H]1CN(CCSC(c2ccc(F)cc2)c2ccc(F)cc2)C[C@H](C)N1: 141
- [O-][S+](CCN1CCN(CC(O)Cc2ccc(C(F)(F)F)cc2)CC1)C(c1ccc(F)cc1)c1ccc(F)cc1 (centres undefined): 991
- OC(CN1CCC2(CCN(CCSC(c3ccc(F)cc3)c3ccc(F)cc3)CC2)C1)c1ccccc1 (centres undefined): 1
- C[C@@H](O)CN1CCN(CCSC(c2ccc(F)cc2)c2ccc(F)cc2)CC1: 40
- [O-][S+](CCCN1CCN(CCCc2ccccc2)CC1)C(c1ccc(F)cc1)c1ccc(F)cc1 (centres undefined): 27
